- Tested on: COLO 205 colon
- Protocol: NCI tumour cell line growth inhibition, 48 h
Quantity: TGI

Could you share which TGI value was measured for N/C(=N\N=C\c1c[nH]c2cc(C(F)(F)F)ccc2c1=O)NO ?
> 10 µM

Could you share which TGI value was measured for CCOC(=O)C(NCc1ccc2c(c1)OCO2)(NC(=O)c1ccccc1)C(F)(F)F (stereo not given) ?
> 100 µM

Could you share which TGI value was measured for COc1ccc(/C=C2\N=C3Sc4c(nc[nH]c4=O)N3C2=O)cc1 ?
> 100 µM

Could you share which TGI value was measured for CN1CCN(Cc2ccc(NC(=O)c3cncc(C#Cc4cncc5ncccc45)c3)cc2C(F)(F)F)CC1 ?
13.2 µM

Could you share which TGI value was measured for COc1cccc2c1-c1c(c3ccc([N+](=O)[O-])cc3c(=O)n1CCCCl)C2=O ?
> 50 µM

###

- Tested on: K-562 leukemia
- Protocol: NCI tumour cell line growth inhibition, 48 h
Record form. Attribute: TGI. Fill in for each entry.

Lab note: need TGI with K-562 leukemia for entry CC[C@H](Nc1nc(N)nc(C)c1C#N)c1nc2cccc(NCc3ccc(C(=O)NO)cc3)c2c(=O)n1-c1ccccc1 , please look it up.
> 100 µM

Lab note: need TGI with K-562 leukemia for entry O=C1N(c2ccccc2)C(=O)C2(SC=NN2Cc2ccccc2)N1c1ccccc1 (stereo not given) , please look it up.
> 100 µM

Lab note: need TGI with K-562 leukemia for entry O=C1CCCC/C1=C1\C(=O)Nc2cc(F)ccc21 , please look it up.
> 100 µM

Lab note: need TGI with K-562 leukemia for entry COc1ccc2nc3cc(Cl)ccc3c(N3CCN(c4ccnc(N5CCOCC5)n4)CC3)c2c1 , please look it up.
> 100 µM

Lab note: need TGI with K-562 leukemia for entry CNC(=O)c1ccc2cc(C3(O)CCn4cncc43)ccc2c1 (stereo not given) , please look it up.
> 100 µM

Lab note: need TGI with K-562 leukemia for entry O=c1ssc(Cl)c1Nc1c(Cl)ssc1=O , please look it up.
15.3 µM

Lab note: need TGI with K-562 leukemia for entry Cc1ccc([N+](=O)[O-])cc1NC(=O)C(=O)C(C(=O)c1ccccc1F)C1OC(=O)c2ccccc21 (stereo not given) , please look it up.
> 100 µM

Lab note: need TGI with K-562 leukemia for entry Oc1ccc2oc3c(O)c4ccccc4cc3c2c1 , please look it up.
1.3 µM

Lab note: need TGI with K-562 leukemia for entry COc1ccc2c(c1)C(=O)c1c-2c(Nc2ccc(C(C)=O)cc2)nc2ccccc12 , please look it up.
> 100 µM

Lab note: need TGI with K-562 leukemia for entry COc1ccc2c(c1)C(=O)C(=O)c1cc(O)c(OC)c(OC)c1-2 , please look it up.
3.01 µM

Lab note: need TGI with K-562 leukemia for entry CC(C)(C)CC(C)(C)c1cc2c(O)c(c1)Cc1cc(C(C)(C)CC(C)(C)C)cc(c1O)Cc1cc(C(C)(C)CC(C)(C)C)cc(c1O)Cc1cc(C(C)(C)CC(C)(C)C)cc(c1O)Cc1cc(C(C)(C)CC(C)(C)C)cc(c1O)Cc1cc(C(C)(C)CC(C)(C)C)cc(c1O)C2 , please look it up.
> 100 µM

Lab note: need TGI with K-562 leukemia for entry C/C1=C/C2=CC(C)C[C@@H]2C(=O)[C@]2(C)C(=O)CC(C)(C)[C@H]2CC1=O (stereo not given in full) , please look it up.
> 50 µM

Lab note: need TGI with K-562 leukemia for entry Oc1c(CN2CCCC2)cc(COCc2ccc(Br)cc2)c2cccnc12 , please look it up.
10.3 µM

Lab note: need TGI with K-562 leukemia for entry O=C1c2ccccc2C(=Cc2ccccc2)c2ccccc21 , please look it up.
16 µM

Lab note: need TGI with K-562 leukemia for entry C[C@@H]1CC[C@@H]2[C@@H]1[C@H](OC(=O)/C=C/c1ccccc1)[C@]1(C3CCCCC3)C[C@@H](NC(=O)CO)[C@@]2(C)O1 , please look it up.
45.1 µM

Lab note: need TGI with K-562 leukemia for entry C=CC[P+](c1ccccc1)(c1ccccc1)c1ccccc1 , please look it up.
> 100 µM

Lab note: need TGI with K-562 leukemia for entry CC1(C)CCc2cc3c(cc2O1)OCC1c2cc4c(cc2OC31)OCO4 (stereo not given) , please look it up.
> 100 µM

Lab note: need TGI with K-562 leukemia for entry COC(=O)[C@]12CC[C@@H](C)[C@H](C)[C@@H]1C1=CC[C@@H]3[C@@]4(C)C(C=O)=C[C@@](C)(COC(=O)c5ccco5)[C@@H]4C(=O)C[C@@]3(C)[C@]1(C)CC2 , please look it up.
> 100 µM

Lab note: need TGI with K-562 leukemia for entry CC1CCC(O)(C(C)(C(=O)O)c2ccccc2)CC1 (stereo not given) , please look it up.
> 100 µM

Lab note: need TGI with K-562 leukemia for entry CN(Cc1cnc2nc(N)nc(N)c2n1)c1ccc(C(=O)NCS(=O)(=O)O)cc1 , please look it up.
> 100 µM
